# Test system: spontaneously hypertensive rats (SHR)
# test-details: Antihypertensive test in spontaneously hypertensive rats (mean blood pressure)
# Format: in vivo, male)
# test-settings: Rattus norvegicus; SHR 3 mg/kg, oral administration; 6 hrs; negative = decrease; read-out: Percent decrease in mean blood pressure after administration, 6 hrs
# Protocol: Through a cannula chronically intubated into the abdominal aorta of a male SHR of 20 to 30 weeks after birth, mean blood pressure and heart rate were measured by means of an electronic recording system without anesthesia and restraint. Five rats were employed in one group of SHR. […] At 1, 3, 6 and 24 hours after administration of test samples, blood pressure and heart rate were determined.
property: change in vivo at 3 mg/kg

compound-structure-string	target-under-test	property	endpoint-result
COc1cc2nc(N3CCN(C(=O)Nc4ccc(Cl)cc4C)CC3)nc(N)c2cc1OC	spontaneously hypertensive rats (SHR)	change in vivo at 3 mg/kg	-18.2%
COc1cc2nc(N3CCN(C(=O)Nc4ccc(C)cc4)CC3)nc(N)c2cc1OC	spontaneously hypertensive rats (SHR)	change in vivo at 3 mg/kg	-21.8%
COc1cc2nc(N3CCN(C(=O)Nc4ccccc4F)CC3)nc(N)c2cc1OC	spontaneously hypertensive rats (SHR)	change in vivo at 3 mg/kg	-23.8%
COc1cc2nc(N3CCN(C(=O)NC4CCCC4)CC3)nc(N)c2cc1OC	spontaneously hypertensive rats (SHR)	change in vivo at 3 mg/kg	-27%

Pending molecule:
Give recorded change in vivo at 3 mg/kg with spontaneously hypertensive rats (SHR) for the following molecule: `COc1cc2nc(N3CCCN(C(=O)Nc4ccccc4)CC3)nc(N)c2cc1OC`
-5%

Recorded values, source patent US4607034A.
